Entry source: patent US20090149440A1

// values below are reported Cmax
assay: Pharmacokinetics: absorbability after oral administration, serum level; type: in vivo, dogs; details: dog; male beagle dogs, fasted, 10 mg/kg oral, 0.5% methylcellulose suspension, serum
readout_type: Cmax (ng/mL)

# smiles_representation, readout_type, value_units, result_value
data = [
    ("CCNC1CN(c2c(F)cc3c(=O)c(C(=O)O)cn(-c4nc(N)c(F)cc4F)c3c2Br)C1.O=C(O)/C=C\\C(=O)O", "Cmax", "ng/mL", 3730),
    ("CNC1CN(c2c(F)cc3c(=O)c(C(=O)O)cn(-c4nc(N)c(F)cc4F)c3c2Br)C1.O=C(O)/C=C\\C(=O)O", "Cmax", "ng/mL", 1490),
    ("CC(C)NC1CN(c2c(F)cc3c(=O)c(C(=O)O)cn(-c4nc(N)c(F)cc4F)c3c2Br)C1.O=C(O)/C=C\\C(=O)O", "Cmax", "ng/mL", 5250),
]

====

// values below are reported melting point

# molecule, melting point
data = [
    ("CCc1c(N2CC(NC(C)C)C2)c(F)cc2c(=O)c(C(=O)O)cn(-c3nc(N)c(F)cc3F)c12 [compound 3]", "≥ 238 °C (dec.)"),
    ("Cc1c(N2CC(NC(C)(C)C)C2)c(F)cc2c(=O)c(C(=O)O)cn(-c3nc(N)c(F)cc3F)c12 [compound 6]", "≥ 193 °C (dec.)"),
    ("CCNc1nc(-n2cc(C(=O)O)c(=O)c3cc(F)c(N4CC(NC(C)C)C4)c(C)c32)c(F)cc1F [compound 8]", "≥ 202 °C (dec.)"),
    ("CC(C)(C)NC1CN(c2c(F)cc3c(=O)c(C(=O)O)cn(-c4nc(N)c(F)cc4F)c3c2Br)C1 [compound 4]", "≥ 225 °C (dec.)"),
    ("CC(C)Nc1nc(-n2cc(C(=O)O)c(=O)c3cc(F)c(N4CC(NC(C)C)C4)c(Cl)c32)c(F)cc1F [compound 10]", "≥ 248 °C (dec.)"),
    ("CNc1nc(-n2cc(C(=O)O)c(=O)c3cc(F)c(N4CC(NC(C)C)C4)c(Cl)c32)c(F)cc1F [compound 9]", "≥ 244 °C (dec.)"),
    ("CC(C)NC1CN(c2c(F)cc3c(=O)c(C(=O)O)cn(-c4nc(N)c(F)cc4F)c3c2Br)C1.CS(=O)(=O)O [compound 13]", "≥ 224 °C (dec.)"),
]

====

// values below are reported melting point

# smiles_representation, melting point
data = [
    ("CNc1nc(-n2cc(C(=O)O)c(=O)c3cc(F)c(N4CC(NC(C)C)C4)c(C)c32)c(F)cc1F", "≥ 218 °C (dec.)"),
    ("CC(C)NC1CN(c2c(F)cc3c(=O)c(C(=O)O)cn(-c4nc(N)c(F)cc4F)c3c2Br)C1.Cl", "≥ 210 °C (dec.)"),
    ("CNc1nc(-n2cc(C(=O)O)c(=O)c3cc(F)c(N4CC(NC(C)C)C4)c(Br)c32)c(F)cc1F", "≥ 220 °C (dec.)"),
    ("CC(C)NC1CN(c2c(F)cc3c(=O)c(C(=O)O)cn(-c4nc(N)c(F)cc4F)c3c2Cl)C1", "≥ 205 °C (dec.)"),
    ("CC(C)(C)NC1CN(c2c(F)cc3c(=O)c(C(=O)O)cn(-c4nc(N)c(F)cc4F)c3c2Cl)C1", "≥ 250 °C (dec.)"),
]
